- Tested on: blackgrass (Alopecurus myosuroides)
- Assay Notes: Test D pre-/postemergence controlled growth environment herbicide test
- Format: in vivo
- Condition Description: Postemergence, 125 g ai/ha, scale 0 to 100
Readout Name: Plant response rating
Format: numeric value only, no unit, no commentary.

Example cases with answers are listed next.
• Cc1cc(=O)n(-c2ccc(C(F)(F)F)cc2)nc1Cc1ccnc(C(F)(F)F)c1 = 20
• COc1cc(=O)n(-c2ccc(F)cc2)nc1Cc1ccnc(C(F)(F)F)c1 = 10
• Cc1cc(=O)n(-c2ccc(F)cc2)nc1Oc1ccnc(C(F)(F)F)c1 = 10

Continue with the compound presented below.
q: Return Plant response rating measured with blackgrass (Alopecurus myosuroides) given this compound: `Cc1cc(=O)n(-c2ccc(F)cc2)nc1Cc1ccnc(C(F)(F)F)c1`
a: 10

----------
- Tested on: morningglory (Ipomoea spp.)
- Assay Notes: Test A pre-/postemergence greenhouse herbicide test
- Type: in vivo
- Condition Description: Postemergence, 500 g ai/ha; 0 to 100 scale (0 no effect, 100 complete control), approx. 10 d
Readout Name: Plant response rating, Morningglory
Format: numeric value only, no unit, no commentary.

- Cc1cc(=O)n(-c2ccc(F)cc2)nc1Oc1cc(C(F)(F)F)ccn1 [Compound 10]: 30
- CN(C)c1cc(=O)n(-c2ccc(C(F)(F)F)cc2)nc1Cc1ccnc(C(F)(F)F)c1 [Compound 21]: 60
- Cc1cc(Oc2cc(C(F)(F)F)ccn2)nn(-c2ccc(F)cc2)c1=O [Compound 9]: 0

q: Which value of Plant response rating, Morningglory has been reported for Cc1cc(=O)n(-c2ccc(F)cc2)nc1Cc1cccc(C(F)(F)F)c1 [Compound 8] in the records?
a: 80

q: Which value of Plant response rating, Morningglory has been reported for Cc1cc(Oc2cccc(C(F)(F)F)n2)nn(-c2ccc(F)cc2)c1=O [Compound 11] in the records?
a: 30

q: Which value of Plant response rating, Morningglory has been reported for Cc1cc(=O)n(-c2ccc(F)cc2)nc1Oc1cccc(C(F)(F)F)n1 [Compound 12] in the records?
a: 90

----------
Listed here are molecules together with their documented Plant response rating.
- System: kochia (Kochia scoparia)
- Assay Notes: Test C pre-/postemergence greenhouse herbicide test
- Assay type: in vivo
- Condition Description: Postemergence, 250 g ai/ha
Format: numeric value only, no unit, no commentary.

Example cases with answers are listed next.
- Cc1cc(=O)n(-c2ccc(F)cc2)nc1Cc1ccnc(C(F)(F)F)c1: 85
- COc1cc(=O)n(-c2ccc(F)cc2)nc1Cc1ccnc(C(F)(F)F)c1: 90
- Cc1cc(Oc2ccnc(C(F)(F)F)c2)nn(-c2ccc(C(F)(F)F)cc2)c1=O: 95

q: Which value of Plant response rating has been reported for `Cc1cc(=O)n(-c2ccc(C(F)(F)F)cc2)nc1Cc1ccnc(C(F)(F)F)c1` in the records?
a: 90

q: Which value of Plant response rating has been reported for `COc1cc(=O)n(-c2ccc(C(F)(F)F)cc2)nc1Cc1ccnc(C(F)(F)F)c1` in the records?
a: 90

q: Which value of Plant response rating has been reported for `Cc1cc(=O)n(-c2ccc(F)cc2)nc1Oc1ccnc(C(F)(F)F)c1` in the records?
a: 80

----------
- Test system: galium (catchweed bedstraw, Galium aparine)
- Assay Notes: Test C pre-/postemergence greenhouse herbicide test
- Type: in vivo
- Condition Description: post-emergence; Galium; Postemergence; 125 g ai/ha; read-out: Plant response rating
Listed here are compounds together with their documented pest or weed control at 125 g/ha.
Could you write the number and then its unit?

Example cases with answers are listed next.
• COc1cc(=O)n(-c2ccc(F)cc2)nc1Cc1ccnc(C(F)(F)F)c1 = 75%
• COc1cc(=O)n(-c2ccc(C(F)(F)F)cc2)nc1Cc1ccnc(C(F)(F)F)c1 = 90%
• Cc1cc(Oc2ccnc(C(F)(F)F)c2)nn(-c2ccc(C(F)(F)F)cc2)c1=O = 90%
• Cc1cc(=O)n(-c2ccc(F)cc2)nc1Oc1ccnc(C(F)(F)F)c1 = 55%
• Cc1cc(=O)n(-c2ccc(F)cc2)nc1Cc1ccnc(C(F)(F)F)c1 = 70%

Continue with the compound presented below.
q: Which value of pest or weed control at 125 g/ha has been reported for `Cc1cc(=O)n(-c2ccc(C(F)(F)F)cc2)nc1Cc1ccnc(C(F)(F)F)c1` in the records?
a: 80%
